Biological target: T1, human amylin-3(a) receptor (human, UniProt P30988 25-474; O60896 24-148)
T1 sequence (looked up) 1: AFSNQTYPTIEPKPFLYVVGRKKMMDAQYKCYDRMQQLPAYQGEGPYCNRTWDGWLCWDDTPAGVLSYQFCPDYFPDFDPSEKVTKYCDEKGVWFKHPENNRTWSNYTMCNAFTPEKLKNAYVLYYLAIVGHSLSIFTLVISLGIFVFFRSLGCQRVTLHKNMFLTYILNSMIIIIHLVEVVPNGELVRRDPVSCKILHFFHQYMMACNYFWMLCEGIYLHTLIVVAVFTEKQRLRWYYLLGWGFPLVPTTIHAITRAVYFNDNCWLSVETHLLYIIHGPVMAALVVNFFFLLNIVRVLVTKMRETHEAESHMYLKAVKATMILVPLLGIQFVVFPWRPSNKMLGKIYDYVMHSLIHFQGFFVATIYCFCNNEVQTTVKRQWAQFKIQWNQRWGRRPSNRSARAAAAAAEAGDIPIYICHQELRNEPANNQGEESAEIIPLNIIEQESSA
T1 sequence (looked up) 2: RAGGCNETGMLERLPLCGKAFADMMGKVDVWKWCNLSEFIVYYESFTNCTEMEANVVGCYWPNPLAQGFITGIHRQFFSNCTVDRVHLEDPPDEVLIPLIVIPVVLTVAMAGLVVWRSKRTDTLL
Experiment: cell-based or functional assay
Numbered stars: 1 amine (or outer) side, 2 acyl side, 3 side chain; on linkers, the order of the positions; unused ones are H or OH. Square brackets hold non-standard residues; d marks the D form. Side chains are listed from the residue outwards. * marks the point of attachment. C20 diacid = O=C(O)CCCCCCCCCCCCCCCCCCC(=O)*; C18 diacid = O=C(O)CCCCCCCCCCCCCCCCC(=O)*; γGlu = O=C(O)[C@H](CCC(=O)[*:2])N[*:1]; AEEA = NCCOCCOCC(=O)O; Aib = CC(C)(N)C(=O)O
The entries below are paired with their reported hAMYR3 Potency, no HSA, EC50 [pM].
Reply with just the number (in pM).

The examples below pair each entry with its known result.
Compound 94 (peptide) peptide: Y[Aib]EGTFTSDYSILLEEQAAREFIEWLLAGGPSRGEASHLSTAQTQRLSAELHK([AEEA-AEEA-γGlu-C20 diacid])LATLPRTETGSGSP-NH2 = 3.91
Compound 87 (peptide) peptide: H[Aib]HGTFTSDYSILLEEQAAREFIEWLLAGGPSSGEASHLSTAALGRLSAK([AEEA-AEEA-γGlu-C18 diacid])LHRLATLPRTETGSGSP-NH2 = 4.99
Compound 95 (peptide) peptide: Y[Aib]EGTFTSDYSILLEEQAAREFIEWLLAGGPSGGGGEASHLSTAQTQRLSAELHK([AEEA-AEEA-γGlu-C18 diacid])LATLPRTETGSGSP-NH2 = 3.76

// below: hAMYR3 Potency, no HSA, EC50 [pM] requested for another binder
Problem: Reported hAMYR3 Potency, no HSA, EC50 [pM], binder Compound 63 (peptide) peptide: H[Aib]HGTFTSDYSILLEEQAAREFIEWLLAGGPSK([AEEA-AEEA-γGlu-C18 diacid])GEASQLSTAALGRLSAELHTLATLPRTETGSGSP-NH2 : ____
Result: 2.86

Data origin, for the record: patent US20260174875A1
